# assay_system: ALK (Homo sapiens, UniProt Q9UM73)
# Sequence (Q9UM73 19-1620): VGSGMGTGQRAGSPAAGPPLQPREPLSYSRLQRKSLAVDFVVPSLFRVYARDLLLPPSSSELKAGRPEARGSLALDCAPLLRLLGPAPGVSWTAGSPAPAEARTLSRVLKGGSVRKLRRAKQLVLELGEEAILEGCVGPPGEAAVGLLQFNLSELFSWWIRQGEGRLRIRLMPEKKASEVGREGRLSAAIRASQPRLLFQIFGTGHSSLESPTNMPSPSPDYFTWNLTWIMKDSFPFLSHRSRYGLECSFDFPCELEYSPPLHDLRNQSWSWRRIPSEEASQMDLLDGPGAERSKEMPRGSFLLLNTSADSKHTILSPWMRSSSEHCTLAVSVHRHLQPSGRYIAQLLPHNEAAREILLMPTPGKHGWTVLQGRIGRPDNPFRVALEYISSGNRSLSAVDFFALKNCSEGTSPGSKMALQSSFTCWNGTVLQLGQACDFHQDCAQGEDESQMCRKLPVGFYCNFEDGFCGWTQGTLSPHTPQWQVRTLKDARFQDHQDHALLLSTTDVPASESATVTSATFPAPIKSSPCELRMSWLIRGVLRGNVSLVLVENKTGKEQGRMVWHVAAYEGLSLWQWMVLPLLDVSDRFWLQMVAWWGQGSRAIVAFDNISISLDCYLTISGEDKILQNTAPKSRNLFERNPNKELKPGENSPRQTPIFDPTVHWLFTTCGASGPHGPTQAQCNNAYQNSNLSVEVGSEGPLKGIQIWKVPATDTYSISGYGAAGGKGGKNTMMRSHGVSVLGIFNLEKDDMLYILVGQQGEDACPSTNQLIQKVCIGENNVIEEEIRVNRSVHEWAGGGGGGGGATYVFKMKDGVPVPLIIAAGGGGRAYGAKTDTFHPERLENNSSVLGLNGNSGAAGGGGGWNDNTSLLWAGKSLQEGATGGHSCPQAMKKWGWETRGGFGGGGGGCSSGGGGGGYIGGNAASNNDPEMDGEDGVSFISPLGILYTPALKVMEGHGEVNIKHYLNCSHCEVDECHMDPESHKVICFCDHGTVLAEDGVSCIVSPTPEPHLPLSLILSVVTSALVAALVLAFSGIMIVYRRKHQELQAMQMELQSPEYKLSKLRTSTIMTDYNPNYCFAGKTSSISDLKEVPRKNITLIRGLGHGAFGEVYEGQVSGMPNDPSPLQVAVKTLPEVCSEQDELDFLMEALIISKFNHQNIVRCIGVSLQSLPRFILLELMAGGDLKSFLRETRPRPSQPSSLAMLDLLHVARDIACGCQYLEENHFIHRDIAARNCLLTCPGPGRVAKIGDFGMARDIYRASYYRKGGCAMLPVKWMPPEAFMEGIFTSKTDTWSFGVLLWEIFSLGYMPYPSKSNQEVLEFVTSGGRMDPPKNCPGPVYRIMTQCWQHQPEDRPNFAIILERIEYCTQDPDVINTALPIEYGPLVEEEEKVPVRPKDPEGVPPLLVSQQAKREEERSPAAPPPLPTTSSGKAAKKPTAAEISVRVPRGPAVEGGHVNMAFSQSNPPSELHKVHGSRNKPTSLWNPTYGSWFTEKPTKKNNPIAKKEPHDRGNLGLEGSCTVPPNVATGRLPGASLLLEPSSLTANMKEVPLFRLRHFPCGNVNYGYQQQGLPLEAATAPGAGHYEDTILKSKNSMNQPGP
measured_property: IC50 (µM)
Give the value in µM but do not write µM after it.

Send back ALK (Homo sapiens, UniProt Q9UM73) IC50 of `O=C(NCCN1CCCC1)c1cc2n(c1)CCc1c(NC(=O)c3ccccc3Cl)n[nH]c1-2` only. 3.4

###

# assay_system: GSK3beta (Homo sapiens, UniProt P49841)
# assay_explanation: Kinase inhibition assay, IC50 (Table A)
# Type: biochemical
# details: Enzyme GSK3beta
measured_property: IC50 (nM)
# output: bare number, implied unit nM

Give reported IC50 value for `CNC(=O)c1cc2n(c1)CCc1c(NC(=O)c3ccc(N4CCN(C)CC4)cc3)n[nH]c1-2` 1920

###

# assay_system: CDC7/DBF4 (Homo sapiens, UniProt O00311)
# Sequence (O00311 whole entry): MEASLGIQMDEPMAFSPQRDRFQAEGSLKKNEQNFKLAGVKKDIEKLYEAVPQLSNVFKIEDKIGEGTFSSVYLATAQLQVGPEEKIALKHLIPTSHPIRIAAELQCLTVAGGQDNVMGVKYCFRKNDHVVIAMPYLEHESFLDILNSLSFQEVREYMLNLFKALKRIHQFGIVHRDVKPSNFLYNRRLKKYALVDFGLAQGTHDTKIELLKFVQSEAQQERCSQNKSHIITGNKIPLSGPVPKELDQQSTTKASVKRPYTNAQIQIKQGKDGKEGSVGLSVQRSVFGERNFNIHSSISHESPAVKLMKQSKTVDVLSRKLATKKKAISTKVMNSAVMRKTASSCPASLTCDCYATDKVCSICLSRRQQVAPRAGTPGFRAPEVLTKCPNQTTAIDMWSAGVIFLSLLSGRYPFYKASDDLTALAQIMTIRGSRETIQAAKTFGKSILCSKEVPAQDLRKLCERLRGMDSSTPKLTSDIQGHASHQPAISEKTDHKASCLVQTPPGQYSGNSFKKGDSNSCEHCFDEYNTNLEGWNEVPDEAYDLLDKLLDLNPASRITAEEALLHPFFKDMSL
# Sequence (Q9UBU7 whole entry partner): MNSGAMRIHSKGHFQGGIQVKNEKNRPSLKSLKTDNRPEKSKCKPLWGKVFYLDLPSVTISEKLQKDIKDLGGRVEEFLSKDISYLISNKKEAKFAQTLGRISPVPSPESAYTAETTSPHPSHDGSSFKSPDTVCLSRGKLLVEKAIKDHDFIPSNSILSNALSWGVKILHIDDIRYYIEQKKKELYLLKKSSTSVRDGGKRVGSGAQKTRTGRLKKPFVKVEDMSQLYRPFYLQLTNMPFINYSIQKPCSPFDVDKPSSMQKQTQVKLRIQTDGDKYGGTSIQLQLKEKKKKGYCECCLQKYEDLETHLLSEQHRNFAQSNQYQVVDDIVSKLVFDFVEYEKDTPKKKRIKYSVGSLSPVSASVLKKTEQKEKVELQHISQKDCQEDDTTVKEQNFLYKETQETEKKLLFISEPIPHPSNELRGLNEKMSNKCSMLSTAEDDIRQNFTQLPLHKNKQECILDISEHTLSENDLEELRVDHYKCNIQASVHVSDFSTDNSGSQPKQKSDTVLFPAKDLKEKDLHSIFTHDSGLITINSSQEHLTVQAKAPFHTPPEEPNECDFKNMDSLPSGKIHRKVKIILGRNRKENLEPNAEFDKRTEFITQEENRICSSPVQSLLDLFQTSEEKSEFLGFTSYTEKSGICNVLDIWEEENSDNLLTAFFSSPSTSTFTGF
# assay_explanation: Inhibition assay of Cdc7 activity (Dowex resin capture, 33P-ATP, MCM2 substrate)
# details: Enzyme CDC7/DBF4
# Experimental: The inhibitory activity of putative kinase inhibitors and the potency of selected compounds were also determined using a trans-phosphorylation assay. Specific peptide or protein substrates are trans-phosphorylated by their specific ser-thr or tyr kinase in the presence of ATP traced with ^33P-γ-ATP, and in the presence of their own optimal buffer and cofactors. […] Supernatant is subsequently withdrawn and transferred into a counting plate, then evaluated by β-counting. […]
measured_property: IC50 (µM)
Just the number in µM, nothing appended.

Given `CNC(=O)c1cc2n(c1)CCc1c(NC(=O)c3ccc(N4CCN(C)CC4)cc3)n[nH]c1-2` , respond with its IC50. 2.99

###

# assay_system: LYN (Homo sapiens, UniProt P07948)
# Sequence (P07948 whole entry): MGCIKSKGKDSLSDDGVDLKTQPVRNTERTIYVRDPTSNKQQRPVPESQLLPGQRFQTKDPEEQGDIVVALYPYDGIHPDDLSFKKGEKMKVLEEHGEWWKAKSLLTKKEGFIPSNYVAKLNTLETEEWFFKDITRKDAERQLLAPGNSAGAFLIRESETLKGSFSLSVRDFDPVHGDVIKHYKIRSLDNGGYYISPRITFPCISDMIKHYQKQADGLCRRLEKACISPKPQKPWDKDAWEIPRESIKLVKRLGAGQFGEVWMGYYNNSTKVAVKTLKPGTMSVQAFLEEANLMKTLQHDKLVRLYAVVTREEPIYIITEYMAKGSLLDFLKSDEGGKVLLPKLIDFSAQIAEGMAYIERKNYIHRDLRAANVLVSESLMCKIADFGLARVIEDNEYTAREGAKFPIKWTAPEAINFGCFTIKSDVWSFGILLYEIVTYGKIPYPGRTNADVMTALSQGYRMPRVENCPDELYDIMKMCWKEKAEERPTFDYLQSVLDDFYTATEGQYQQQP
measured_property: pIC50
Note on units: pIC50 is unitless, being -log10 of a concentration expressed in mol/L.

Check LYN (Homo sapiens, UniProt P07948) data and give pIC50 for `Cc1ccc(C(=O)Nc2n[nH]c3c2CCn2cc(C(=O)N4CCCC4)cc2-3)c(C)c1` . 5.67

###

A short record of IC50 observed with ABL (Homo sapiens, UniProt P00519) follows.
Sequence (P00519 whole entry): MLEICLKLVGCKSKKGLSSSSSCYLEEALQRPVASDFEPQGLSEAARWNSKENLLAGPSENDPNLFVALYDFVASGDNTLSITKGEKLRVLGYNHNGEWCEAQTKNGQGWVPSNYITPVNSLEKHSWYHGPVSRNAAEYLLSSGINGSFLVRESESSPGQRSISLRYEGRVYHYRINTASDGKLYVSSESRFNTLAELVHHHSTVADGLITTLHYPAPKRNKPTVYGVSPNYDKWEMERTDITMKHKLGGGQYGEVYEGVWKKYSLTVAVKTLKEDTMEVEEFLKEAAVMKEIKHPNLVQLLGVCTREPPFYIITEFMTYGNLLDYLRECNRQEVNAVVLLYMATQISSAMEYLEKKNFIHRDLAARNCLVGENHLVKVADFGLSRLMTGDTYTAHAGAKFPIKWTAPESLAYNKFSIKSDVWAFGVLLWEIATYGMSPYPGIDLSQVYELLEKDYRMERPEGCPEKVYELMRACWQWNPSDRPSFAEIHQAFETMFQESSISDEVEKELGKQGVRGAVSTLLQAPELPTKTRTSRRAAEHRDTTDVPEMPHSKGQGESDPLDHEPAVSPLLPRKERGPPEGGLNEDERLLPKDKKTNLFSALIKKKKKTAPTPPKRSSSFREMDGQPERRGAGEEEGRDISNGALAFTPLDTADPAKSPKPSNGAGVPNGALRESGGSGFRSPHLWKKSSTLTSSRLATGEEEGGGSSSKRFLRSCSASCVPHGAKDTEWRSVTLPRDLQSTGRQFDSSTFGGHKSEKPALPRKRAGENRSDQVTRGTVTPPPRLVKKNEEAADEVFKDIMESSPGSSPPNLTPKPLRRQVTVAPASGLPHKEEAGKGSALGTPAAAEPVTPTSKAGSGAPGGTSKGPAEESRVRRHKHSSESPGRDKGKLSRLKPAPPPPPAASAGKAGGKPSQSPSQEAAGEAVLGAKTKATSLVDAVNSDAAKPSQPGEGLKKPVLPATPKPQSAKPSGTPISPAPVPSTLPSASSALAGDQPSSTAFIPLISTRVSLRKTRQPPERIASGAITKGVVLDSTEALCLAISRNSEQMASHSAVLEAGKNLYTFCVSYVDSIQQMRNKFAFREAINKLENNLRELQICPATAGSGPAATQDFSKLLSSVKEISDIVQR
Please reply with the bare figure in nM and do not write the unit itself.

{"molecule_smiles": "O=C(NCCN1CCCC1)c1cc2n(c1)CCc1c(NC(=O)c3ccccc3Cl)n[nH]c1-2", "assay_system": "ABL (Homo sapiens, UniProt P00519)", "result": 540}
{"molecule_smiles": "Cc1ccc(C(=O)Nc2n[nH]c3c2CCn2cc(C(=O)N4CCCC4)cc2-3)c(C)c1", "assay_system": "ABL (Homo sapiens, UniProt P00519)", "result": 3500}
{"molecule_smiles": "O=C(Nc1n[nH]c2c1CCn1cc(C(=O)N3CCCC3)cc1-2)c1ccccc1F", "assay_system": "ABL (Homo sapiens, UniProt P00519)", "result": 2430}

Complete the entry with IC50 for `O=C(NCC1CC1)c1cc2n(c1)CCc1c(NC(=O)c3ccccc3Cl)n[nH]c1-2` 400

Input `C=CCNC(=O)c1cc2n(c1)CCc1c(NC(=O)c3ccccc3C)n[nH]c1-2` , output reported IC50. 3230

###

# assay_system: LCK (Homo sapiens)
# Sequence (P06239 whole entry): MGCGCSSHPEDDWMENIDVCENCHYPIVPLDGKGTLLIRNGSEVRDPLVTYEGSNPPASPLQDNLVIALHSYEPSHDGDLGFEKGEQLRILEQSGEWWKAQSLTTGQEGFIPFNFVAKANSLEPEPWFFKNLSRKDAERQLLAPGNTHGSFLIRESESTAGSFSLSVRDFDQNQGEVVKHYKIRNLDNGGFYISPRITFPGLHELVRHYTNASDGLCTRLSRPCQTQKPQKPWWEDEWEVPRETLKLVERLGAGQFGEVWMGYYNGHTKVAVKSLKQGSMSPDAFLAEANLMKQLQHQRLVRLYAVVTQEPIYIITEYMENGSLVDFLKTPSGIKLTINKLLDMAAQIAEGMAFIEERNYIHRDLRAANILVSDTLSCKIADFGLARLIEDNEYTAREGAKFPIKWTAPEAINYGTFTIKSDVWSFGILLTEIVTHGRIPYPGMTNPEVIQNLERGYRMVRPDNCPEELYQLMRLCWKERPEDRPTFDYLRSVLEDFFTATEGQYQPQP
measured_property: pIC50
Expect pIC50 as a plain number equal to -log10 of the molar concentration.

Report pIC50 on LCK (Homo sapiens) for this entry: `Cc1ccc(C(=O)Nc2n[nH]c3c2CCn2cc(C(=O)N4CCC(N5CCCCC5)CC4)cc2-3)c(C)c1` 5.46

// provenance: patent US9127015B2
